# METHOD_DESCRIPTION: yeast display, Sf9 membrane polyspecificity reagent, FACS + sequencing; frameworks hold sequencing errors
ASSAY_ENDPOINT: polyreactivity (PSR sort gate)

The cases that follow already have their polyreactivity (PSR sort gate) on record.
[[record]]
macromolecule_sequence = "QVQLVESGGGLVQAGGRLRLSCAASGYTFGVYDMGWYRQAPGKERELVAAISGSTYYADSVKGRFTISRDNAKNTVYLQMNSLKPEDTAVYYCAAESYFFSPRTREKFDYWGQGTQVTVSS"
recorded_measurement = "low polyreactivity"

[[record]]
macromolecule_sequence = "QVQLVESGGGLVQAGGSLRLSCAASGYTFDAYAMGWYRQAPGKERELVAAITTNGGSTYYADSVKGRFTISRDNAKNTVFLQMNSLIPEDTAVFYCKAEYWYEGRYPYDYWGQGTQVTVSS"
recorded_measurement = "low polyreactivity"

[[record]]
macromolecule_sequence = "QDQIVESGGGLVQAGGSLRISCAPSGSILGYYGMGWYRQAPGKERELVAAISSSGNTNYADSVKGRFTISRDNAKNTVYFQMNSLKPDDTAVYYCAASFQYVAYFLYVYWGQGTQVTVSS"
recorded_measurement = "low polyreactivity"

[[record]]
macromolecule_sequence = "QVQLVESGGGLVQAGGSLRLSCAASGGTFGVYAMGWYRQAPGKERELVAAIDWDDGNTYYADSVKGRFTLSRDNAKNTVYLQMNSLKPEDTAVYYCAAVVFSRRYWVKFYYWGQGTQVTVSS"
recorded_measurement = "high polyreactivity"


Task: Could you share which polyreactivity (PSR sort gate) value was measured for `QVQLVESGGGLVQAGGSLRLSCAASGSILGYYAMGWYRHAPRKERELVASITGNGGSTYYADSVKGRFTISRDNAKNTVYLQMISLKPEDTAVYYCAKRVGPYKLGEYDYWGQGTQVTVSS` ?
Output: high polyreactivity
